Assay: Solubility (physicochemical properties)
Settings: in 50% aqueous ethanol (ethanol:water 1:1 by volume)

COMPOUND	Solubility
CCC1=C\C=C\C(CC)C(C(C)C(O)CC2(OC)CC(OC3CC(O)C(O)C(C)O3)C(CC)C(C)O2)OC(=O)/C=C/C(CC)=C/C=C/C(CC)C(C(C)C(O)CC2(O)CC(OC3CC(O)C(O)C(C)O3)C(CC)C(C)O2)OC(=O)\C=C\1 (stereo not drawn) [bispolide A2]	sparlingly soluble
CCC1=C\C=C\C(CC)C(C(C)C(O)CC2(OC)CC(OC3CC(O)C(O)C(C)O3)C(CC)C(C)O2)OC(=O)/C=C/C(CC)=C/C=C/C(CC)C(C(C)C(O)CC2(OC)CC(OC3CC(O)C(O)C(C)O3)C(CC)C(C)O2)OC(=O)\C=C\1 (stereo not drawn) [bispolide A3]	sparlingly soluble
